Recorded growth inhibition values for a group of molecules are listed next.
protocol_text: NCI Yeast Anticancer Drug Screen. Data for the cln2 rad14 strain (AID 165);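 further: 0% = growth equal to vehicle treated cultures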
protocol_conditions: S. cerevisiae cln2 rad14 strain, at 50.0 µM, hits give high values
Compounds without any hit were thinned out: in the full panel of roughly 79,000, 15% have a hit. Activity calls are given as the source filed them. No stated cut-off is given here; in the data, active means growth inhibition above about 70%; inactive means the rest.

| molecule | growth inhibition |
| --- | --- |
| COC(=O)c1nc(N)nc(C(=O)OC)c1C(=O)C(C)C | -13.4% (inactive) |
| Nc1nc(N)c(N2CCN(Cc3ccccc3)CC2)c(Cl)n1 | 18.9% (inactive) |
| Cc1cc(=O)[nH]c(NN2C(Cl)C(=O)C2c2c(O)ccc3ccccc23)n1 (stereo unspecified) | 13.3% (inactive) |
| CC(C)(CN1CCCCC1)C(=O)/C=C/c1ccc(Cl)cc1 | 38.5% (inactive) |

Here's the next entry for you.
Query: Given the entry Nc1ncc([N+](=O)[O-])c(N)n1 , report its measured growth inhibition.
Result: 0.7% (inactive)
